Values were extracted from patent US10392379B2.

Test system: AD38 cells
EXPERIMENT SUMMARY: Viability of AD38 cells (Promega CellTiter-Glo)
Type: cell-based
CONDITIONS USED: 10 μM compound, 6 days, DMSO controls = 100%
MEASUREMENT LABEL: AD38 Viability Normalized Result (cmpd/DMSO %) at 10 μM

[
  {
    "MOLECULE": "O=C(NCc1nnc(-c2ccc(O)cc2)s1)c1ccc2c(c1)NC(=O)c1ccccc1O2 [Compound 739]",
    "UNIT ABBREVIATION": "%",
    "ASSAY RESULT": 108
  },
  {
    "MOLECULE": "O=C(NCCc1cccnc1)c1ccc2c(c1)NC(=O)c1ccccc1N2 [Compound 506]",
    "UNIT ABBREVIATION": "%",
    "ASSAY RESULT": 100
  },
  {
    "MOLECULE": "O=C(NCc1cnc(-c2ccc(O)cc2Cl)nc1)c1ccc2c(c1)NC(=O)c1ccccc1S2(=O)=O [Compound 793]",
    "UNIT ABBREVIATION": "%",
    "ASSAY RESULT": 103
  },
  {
    "MOLECULE": "NC(=O)c1ccc(-c2ccc(CNC(=O)c3ccc4c(c3)NC(=O)c3ccccc3S4(=O)=O)nc2)cc1 [Compound 870]",
    "UNIT ABBREVIATION": "%",
    "ASSAY RESULT": 106
  }
]

* * *

System: AD38 cells
EXPERIMENT SUMMARY: Viability of AD38 cells (Promega CellTiter-Glo)
Assay type: cell-based
CONDITIONS USED: 10 μM compound, 6 days, DMSO controls = 100%
Experimental: AD38 cells were then re-suspended with 10 mL of Treatment Medium and counted. Wells of a collagen coated 96-well NUNC microtiter plate were seeded at 50,000/well in 180 μL of Treatment Medium, and 20 μL of in treatment media with either 10% DMSO (Control) or a 10× solution of compound in 10% DMSO was added. Plates were incubated for 6 days at 37° C. At the end of compound treatment period cell viability was assessed using a Promega CellTiter-Glo protocol. […]
MEASUREMENT LABEL: AD38 Viability Normalized Result (cmpd/DMSO %) at 10 μM

[
  {
    "SMILES RECORD": "O=C(NCc1cncnc1)c1ccc2c(c1)NC(=O)c1ccc(Cl)cc1S2",
    "ASSAY RESULT": 106
  },
  {
    "SMILES RECORD": "NC(=O)c1ccc(-c2ccc(CNC(=O)c3ccc4c(c3)NC(=O)c3ccccc3S4(=O)=O)cn2)cc1",
    "ASSAY RESULT": 103
  },
  {
    "SMILES RECORD": "O=C(NCc1cccnc1)c1ccc2c(c1)NC(=O)c1cc(Cl)ccc1S2",
    "ASSAY RESULT": 52
  },
  {
    "SMILES RECORD": "O=C(NCc1cnc(-c2ccccc2CO)nc1)c1ccc2c(c1)NC(=O)c1ccccc1S2(=O)=O",
    "ASSAY RESULT": 103
  },
  {
    "SMILES RECORD": "O=C(NCc1ccc(-c2ccc3[nH]ncc3c2)nc1)c1ccc2c(c1)NC(=O)c1ccccc1S2(=O)=O",
    "ASSAY RESULT": 106
  },
  {
    "SMILES RECORD": "N#Cc1ccc(-c2ccc(CNC(=O)c3ccc4c(c3)NC(=O)c3ccccc3S4(=O)=O)nc2)cc1",
    "ASSAY RESULT": 83
  },
  {
    "SMILES RECORD": "COc1ccc(Cc2ccc(CNC(=O)c3ccc4c(c3)NC(=O)c3ccccc3S4(=O)=O)cn2)cc1",
    "ASSAY RESULT": 58
  },
  {
    "SMILES RECORD": "O=C(NCc1ccc(-c2ccc(O)cc2F)nc1)c1ccc2c(c1)NC(=O)c1ccccc1S2(=O)=O",
    "ASSAY RESULT": 94
  },
  {
    "SMILES RECORD": "O=C(NCc1cncnc1)c1ccc2c(c1)NC(=O)c1ccccc1N2",
    "ASSAY RESULT": 101
  },
  {
    "SMILES RECORD": "O=C(NCc1ccc(Cc2ccc(O)cc2)nc1)c1ccc2c(c1)NC(=O)c1ccccc1O2",
    "ASSAY RESULT": 108
  },
  {
    "SMILES RECORD": "O=C(NCc1ccc(-c2ccc(O)cc2)nc1)c1ccc2c(c1)NC(=O)c1ccccc1S2(=O)=O",
    "ASSAY RESULT": 104
  }
]
